assay: Cytotoxicity against human PBMC after 48 hrs by MTT assay; format: cell-based; details: PBMC (peripheral blood mononuclear cells)
experimentalEndpoint: CC50 at 48 h

{"columns": ["compound", "measuredValue"],
 "data": [
  ["CC(C)=CCC[C@]1(C)[C@@H](CC=C(C)C)C[C@@]2(CC=C(C)C)C(=O)C(C(=O)c3ccc(OC(=O)c4ccc(Cl)cc4)c(OC(=O)c4ccc(Cl)cc4)c3)=C(O)[C@]1(CC=C(C)C)C2=O", "> 114 µM"],
  ["CC(C)=CCC[C@]1(C)[C@@H](CC=C(C)C)C[C@@]2(CC=C(C)C)C(=O)C(C(=O)c3ccc(OS(C)(=O)=O)c(OS(C)(=O)=O)c3)=C(O)[C@]1(CC=C(C)C)C2=O", "> 132 µM"],
  ["CC(C)=CCC[C@]1(C)[C@@H](CC=C(C)C)C[C@@]2(CC=C(C)C)C(=O)C(C(=O)c3ccc(OC(=O)c4ccccc4)c(OC(=O)c4ccccc4)c3)=C(O)[C@]1(CC=C(C)C)C2=O", "> 123 µM"],
  ["CC(=O)Oc1ccc(C(=O)C2=C(O)[C@]3(CC=C(C)C)C[C@H](CC=C(C)C)[C@@](C)(CCC=C(C)C)[C@](CC=C(C)C)(C2=O)C3=O)cc1OC(C)=O", "114 µM"],
  ["CC(C)=CCC[C@]1(C)[C@@H](CC=C(C)C)C[C@@]2(CC=C(C)C)C(=O)C(C(=O)c3ccc(OC(=O)OC(C)(C)C)c(O)c3)=C(O)[C@]1(CC=C(C)C)C2=O", "> 142 µM"],
  ["CC(C)=CCC[C@]1(C)[C@@H](CC=C(C)C)C[C@@]2(CC=C(C)C)C(=O)C(C(=O)c3ccc(OS(=O)(=O)c4ccc(C)cc4)c(OS(=O)(=O)c4ccc(C)cc4)c3)=C(O)[C@]1(CC=C(C)C)C2=O", "> 113 µM"]
]}
